For each of the molecules below, state its log10 IC50.
assay-target: Glutamate NMDA receptor
experimental-protocol: Inhibition of [3H]-(+)-MK-801 binding to NMDA receptor ion-channel complex of rat cortical memembranes
Field: value | Transform: log10 | Quantity: IC50 | Unit: µM

Consider the following illustrative entries.
molecule=O=C(O)c1nc2c(O)nc3cc(Cl)c([N+](=O)[O-])cc3n2n1 quantity_measured="log10 IC50" recorded_measurement=1.25
molecule="O=C(O)c1nc2c(O)nc3cc(Cl)c(-n4cnnc4)cc3n2n1 [TQX-173]" quantity_measured="log10 IC50" recorded_measurement=1.83

Quick request: log10 IC50 for each listed item, please.
1. NS(=O)(=O)c1cccc2c1c([N+](=O)[O-])cc1nc(O)c(O)nc12 [NBQX]
2. O=C(O)c1nc2c(O)nc3cc(Cl)c(-n4cccc4)cc3n2n1
3. Nc1cc2c(cc1Cl)nc(O)c1nc(C(=O)O)nn12
4. O=C(O)c1nc2c(=O)[nH]c3cc(Cl)c(-n4cccn4)cc3n2n1
5. O=Cc1ccn(-c2cc3c(cc2Cl)nc(O)c2nc(C(=O)O)nn23)c1

1. -0.70
2. 1.07
3. 0.75
4. 1.23
5. 1.63
